// values below are log10 of IC50; system is Ribosomal protein S6 kinase alpha-3 (Homo sapiens)
Recall that a logarithmic scale is used here: each number is log10 of IC50 in µM.

Exercise: log10 of IC50 lookup needed for Cc1cn2c(/C=N/NC(=N)N)c(-c3cc([N+](=O)[O-])c(Cl)cc3Cl)nc2s1 , thanks.
Key: 0.66

Exercise: log10 of IC50 lookup needed for N=C(N)N/N=C/c1c(-c2cccc([N+](=O)[O-])c2)nc2sc(Cl)cn12 , thanks.
Key: 0.78

Exercise: log10 of IC50 lookup needed for N=C(N)N/N=C/c1c(-c2cccc([N+](=O)[O-])c2)nc2sccn12 , thanks.
Key: 1.27

Exercise: log10 of IC50 lookup needed for Cc1sc2nc(-c3ccc(Cl)c([N+](=O)[O-])c3)c(/C=N/NC(=N)N)n2c1C , thanks.
Key: 1.14

Exercise: log10 of IC50 lookup needed for Cc1cn2c(/C=N/NC(=N)N)c(-c3ccc(Cl)c([N+](=O)[O-])c3)nc2s1 , thanks.
Key: 0.58

Return reported log10 of IC50 values for all items listed beneath this line.
1. Cc1cn2c(/C=N\NC(=N)N)c(-c3ccc(F)c([N+](=O)[O-])c3)nc2s1
2. Cl.N=C(N)N/N=C\c1c(-c2ccc([N+](=O)[O-])cc2)nc2sc(F)cn12

Key:
1. 1.49
2. 0.33

---

- testTarget: Ribosomal protein S6 kinase alpha-3 (Homo sapiens, UniProt P51812)
- Sequence (P51812 whole entry): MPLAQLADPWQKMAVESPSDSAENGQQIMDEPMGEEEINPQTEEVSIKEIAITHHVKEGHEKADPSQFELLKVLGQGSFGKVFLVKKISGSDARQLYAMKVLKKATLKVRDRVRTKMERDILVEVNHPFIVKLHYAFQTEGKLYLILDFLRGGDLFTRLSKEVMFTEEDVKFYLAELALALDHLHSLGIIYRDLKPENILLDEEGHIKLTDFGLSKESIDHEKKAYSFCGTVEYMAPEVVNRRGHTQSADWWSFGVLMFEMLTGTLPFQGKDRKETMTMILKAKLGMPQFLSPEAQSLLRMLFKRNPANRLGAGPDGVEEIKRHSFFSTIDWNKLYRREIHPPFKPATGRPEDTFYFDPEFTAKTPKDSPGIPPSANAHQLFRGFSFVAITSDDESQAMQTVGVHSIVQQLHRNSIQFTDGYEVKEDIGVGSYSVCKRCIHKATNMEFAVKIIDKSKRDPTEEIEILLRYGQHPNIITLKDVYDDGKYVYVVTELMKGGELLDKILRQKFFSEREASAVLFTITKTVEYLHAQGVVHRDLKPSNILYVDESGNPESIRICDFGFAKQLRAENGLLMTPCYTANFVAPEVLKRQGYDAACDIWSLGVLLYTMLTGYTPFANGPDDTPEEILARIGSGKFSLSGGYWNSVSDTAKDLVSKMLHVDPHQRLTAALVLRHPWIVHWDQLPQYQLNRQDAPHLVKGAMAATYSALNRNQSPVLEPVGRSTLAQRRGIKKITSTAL
pIC50: −log10 of the molar value.
Each entry gets rule not met if its pIC50 stays under 5, and rule met if its pIC50 is 5 or above.

The following compounds have reported results that may help.
Exercise: Does N=C(N)N/N=C/c1c(-c2ccccc2)nc2sc(Cl)cn12 have a reported pIC50 of at least 5?
Key: rule not met

Exercise: Does Clc1cc(-c2nc3sc4ccccc4n3c2/C=N/NC2=NCCN2)c(Cl)s1 have a reported pIC50 of at least 5?
Key: rule not met

Further cases:
Exercise: Does COc1cc([N+](=O)[O-])c(OC)cc1-c1nc2sc(C)nn2c1/C=N\NC(=N)N have a reported pIC50 of at least 5?
Key: rule not met

Exercise: Does Cc1cn2c(/C=N/NC(=N)N)c(-c3cc(Cl)sc3Cl)nc2s1 have a reported pIC50 of at least 5?
Key: rule not met

Exercise: Does Cc1cn2c(/C=N/NC(=N)N)c(-c3ccc([N+](=O)[O-])cc3)nc2s1.Cl have a reported pIC50 of at least 5?
Key: rule met

Exercise: Does CCCc1cn2c(/C=N/NC(=N)N)c(-c3cc([N+](=O)[O-])c(Cl)cc3Cl)nc2s1 have a reported pIC50 of at least 5?
Key: rule met

Exercise: Does N=C(N)N/N=C/c1c(-c2ccc([N+](=O)[O-])cc2)nc2sc(Cl)cn12 have a reported pIC50 of at least 5?
Key: rule met

Source: ChEMBL document CHEMBL1909514
